target_or_system: mouse TAAR1 (Mus musculus (Mouse), UniProt Q923Y8)
Sequence (Q923Y8 whole entry): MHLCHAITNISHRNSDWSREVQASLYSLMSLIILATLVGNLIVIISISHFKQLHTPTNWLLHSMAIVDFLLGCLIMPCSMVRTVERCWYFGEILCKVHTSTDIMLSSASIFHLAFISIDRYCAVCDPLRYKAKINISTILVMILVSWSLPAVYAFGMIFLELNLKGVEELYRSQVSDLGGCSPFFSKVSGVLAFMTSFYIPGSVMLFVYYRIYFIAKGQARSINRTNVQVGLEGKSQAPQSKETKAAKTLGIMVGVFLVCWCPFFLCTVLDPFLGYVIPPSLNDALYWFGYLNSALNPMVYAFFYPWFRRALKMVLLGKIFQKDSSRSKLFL
assay_comment: Radioligand binding assay on mouse TAAR1
assay_setup: mouse TAAR1 (first value of the cell); membranes of HEK-293 cells stably expressing mouse TAAR1; read-out: Ki (μM) mouse/rat
Please assign F whenever Ki is at or above 0.3 µM, and T whenever it is below.

Problem: Given the entry FC(F)(F)c1ccc(Nc2ccc(C[C@]34CN[C@H](CO3)C4)cc2)nc1 , would its reported Ki be below 0.3 µM?
Solution: F

====

target_or_system: mouse TAAR1 (Mus musculus (Mouse))
assay_comment: Radioligand binding assay on mouse TAAR1
assay_setup: mouse TAAR1 (first value of the cell); membranes of HEK-293 cells stably expressing mouse TAAR1; read-out: Ki (μM) mouse/rat
quantity_kind: Ki (µM)
Answer with a number only, understood to be in µM.

>  <compound>
O=C(Nc1ccc(Cl)cc1)Nc1ccc(C[C@@]23CN[C@@H](CO2)C3)cc1

>  <unit_abbreviation>
µM

>  <Ki>
0.0137

$$$$
>  <compound>
O=C(Nc1ccc(C23CCC(CO2)NC3)cc1)Nc1cccc(Cl)c1 (racemic)

>  <unit_abbreviation>
µM

>  <Ki>
0.0119

$$$$
>  <compound>
O=C(Nc1ccc(C[C@]23CN[C@H](CO2)C3)cc1)c1cccc(Cl)c1

>  <unit_abbreviation>
µM

>  <Ki>
0.112

$$$$
>  <compound>
O=C(Nc1ccc(C[C@@]23CN[C@@H](CO2)C3)cc1)Nc1cccc(C(F)(F)F)c1

>  <unit_abbreviation>
µM

>  <Ki>
0.0046

$$$$
>  <compound>
O=C(Nc1ccc(C[C@]23CN[C@H](CO2)C3)cc1)c1cnc(C2CC2)nc1

>  <unit_abbreviation>
µM

>  <Ki>
0.36

$$$$
>  <compound>
FC(F)(F)c1nccc(Nc2ccc([C@@]34CN[C@@H](CO3)C4)cc2)n1

>  <unit_abbreviation>
µM

>  <Ki>
0.0393

$$$$

Problem: Which Ki reading was recorded for the compound O=C(Nc1ccc(C[C@]23CN[C@H](CO2)C3)cc1)Nc1ccccc1Cl ?
Solution: 1.63

Problem: And then O=C(Nc1ccc([C@]23CN[C@H](CO2)C3)cc1)c1ccnc(C(F)(F)F)c1 , what is it?
Solution: 0.0512

====

target_or_system: mouse TAAR1 (Mus musculus (Mouse), UniProt Q923Y8)
assay_comment: Radioligand binding assay on mouse TAAR1
assay_setup: mouse TAAR1 (first value of the cell); membranes of HEK-293 cells stably expressing mouse TAAR1; read-out: Ki (μM) mouse/rat
quantity_kind: log10(Ki) (log10 of the value in µM)
The common logarithm of Ki in µM is what is listed.

Sample records with log10(Ki):
>  <compound>
O=C(Nc1ccc([C@@]23CN[C@@H](CO2)C3)cc1)c1ccc(Cl)cc1

>  <log10(Ki)>
-2.27

$$$$
>  <compound>
O=C(Nc1ccc(C[C@]23CN[C@H](CO2)C3)cc1)Nc1cccc(C(F)(F)F)c1

>  <log10(Ki)>
-0.44

$$$$
>  <compound>
CCOc1ccc(C(=O)Nc2ccc(C[C@]34CN[C@H](CO3)C4)cc2)cc1

>  <log10(Ki)>
-0.48

$$$$
>  <compound>
O=C(Nc1ccc(C[C@@]23CN[C@@H](CO2)C3)cc1)c1cnc(C2CC2)nc1

>  <log10(Ki)>
-1.11

$$$$
>  <compound>
CCCc1n[nH]c(C(=O)Nc2ccc(C[C@]34CN[C@H](CO3)C4)cc2)c1Cl

>  <log10(Ki)>
-0.32

$$$$

Problem: Which log10(Ki) reading was recorded for the compound O=C(Nc1ccc(C[C@@]23CN[C@@H](CO2)C3)cc1)c1cccc(Cl)c1 ?
Solution: -2.66

Problem: And then FC(F)(F)c1cnc(Nc2ccc(C34CCC(CO3)NC4)cc2)cn1 (racemic) , what is it?
Solution: -1.52

Problem: And then FC(F)(F)c1cnc(Nc2ccc(C34CCC(CO3)NC4)cc2)nc1 (racemic) , what is it?
Solution: -0.91

====

// reported Ki for each item listed
target_or_system: mouse TAAR1 (Mus musculus (Mouse), UniProt Q923Y8)
assay_comment: Radioligand binding assay on mouse TAAR1
assay_setup: mouse TAAR1 (first value of the cell); membranes of HEK-293 cells stably expressing mouse TAAR1; read-out: Ki (μM) mouse/rat
Answer with a number only, understood to be in µM.

>  <molecule>
O=C(Nc1ccc(C23CCC(CO2)NC3)cc1)c1ccc(Cl)cc1 (racemic)

>  <unit_abbreviation>
µM

>  <Ki>
0.0028

$$$$
>  <molecule>
O=C(Nc1ccc(C[C@]23CN[C@H](CO2)C3)cc1)c1ccc(OCC(F)(F)F)nc1

>  <unit_abbreviation>
µM

>  <Ki>
0.0552

$$$$
>  <molecule>
O=C(Nc1ccc(C[C@@]23CN[C@@H](CO2)C3)cc1)c1ccc(OCC2CC2)cc1

>  <unit_abbreviation>
µM

>  <Ki>
0.0061

$$$$

Problem: Which Ki reading was recorded for the molecule CC(C)c1cc(C(=O)Nc2ccc(C[C@]34CN[C@H](CO3)C4)cc2)[nH]n1 ?
Solution: 10.1

Problem: And then FC(F)(F)c1ccc(Nc2ccc(C34CCC(CO3)NC4)cc2)nc1 (racemic) , what is it?
Solution: 0.0111

Problem: And then CCc1ncc(C(=O)Nc2ccc(C34CCC(CO3)NC4)cc2)cn1 (racemic) , what is it?
Solution: 0.153

====

target_or_system: mouse TAAR1 (Mus musculus (Mouse), UniProt Q923Y8)
assay_comment: Radioligand binding assay on mouse TAAR1
assay_setup: mouse TAAR1 membranes, saturation curve; read-out: dissociation constant (Kd) of the TAAR1 radioligand
pKd: −log10 of the molar value.
quantity_kind: pKd

Problem: Which pKd reading was recorded for the compound CCN(C[C@H]1COC(N)=N1)c1ccccc1 [reference compound] ?
Solution: ~9.15

====

target_or_system: mouse TAAR1 (Mus musculus (Mouse), UniProt Q923Y8)
assay_comment: Radioligand binding assay on mouse TAAR1
assay_setup: mouse TAAR1 (first value of the cell); membranes of HEK-293 cells stably expressing mouse TAAR1; read-out: Ki (μM) mouse/rat
quantity_kind: Ki (µM)
Answer with a number only, understood to be in µM.

Sample records with Ki:
>  <compound>
O=C(Nc1ccc([C@]23CN[C@H](CO2)C3)cc1)c1ccc(Cl)cc1

>  <Ki / µM>
0.016

$$$$
>  <compound>
CCOc1ccc(C(=O)Nc2ccc(C34CCC(CO3)NC4)cc2)cc1 (centres unmarked)

>  <Ki / µM>
0.0156

$$$$
>  <compound>
O=C(Nc1ccc(C[C@@]23CN[C@@H](CO2)C3)cc1)Nc1cccc(Cl)c1

>  <Ki / µM>
0.0086

$$$$

Problem: Which Ki reading was recorded for the compound CCCc1n[nH]c(C(=O)Nc2ccc(C[C@@]34CN[C@@H](CO3)C4)cc2)c1Cl ?
Solution: 0.0183

Problem: And then FC(F)(F)c1ccc(Nc2ccc([C@]34CN[C@H](CO3)C4)cc2)nc1 , what is it?
Solution: 0.0146

====

target_or_system: rat TAAR1 (Rattus norvegicus (Rat))
Sequence (Q923Y9 whole entry): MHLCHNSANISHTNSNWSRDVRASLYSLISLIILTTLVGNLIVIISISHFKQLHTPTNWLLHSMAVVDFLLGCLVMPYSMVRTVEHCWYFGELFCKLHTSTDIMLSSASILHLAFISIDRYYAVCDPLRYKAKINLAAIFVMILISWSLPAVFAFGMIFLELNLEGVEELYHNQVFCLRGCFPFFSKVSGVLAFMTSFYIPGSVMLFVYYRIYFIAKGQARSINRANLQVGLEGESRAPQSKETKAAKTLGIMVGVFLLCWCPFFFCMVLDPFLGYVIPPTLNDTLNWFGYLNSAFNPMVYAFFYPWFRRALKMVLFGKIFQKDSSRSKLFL
assay_comment: Radioligand binding assay on rat TAAR1
assay_setup: rat TAAR1 (second value of the cell); membranes of HEK-293 cells stably expressing rat TAAR1; read-out: Ki (μM) mouse/rat
Please assign f whenever Ki is at or above 0.06 µM, and t whenever it is below.

# count of solved cases: 5
>  <compound>
CCOc1ccc(C(=O)Nc2ccc(C34CCC(CO3)NC4)cc2)cn1 (racemic)

>  <classification>
f

$$$$
>  <compound>
O=C(Nc1ccc(C[C@@]23CN[C@@H](CO2)C3)cc1)c1ccc(OCC(F)(F)F)nc1

>  <classification>
t

$$$$
>  <compound>
O=C(Nc1ccc(C[C@]23CN[C@H](CO2)C3)cc1)Nc1cccc(Cl)c1

>  <classification>
f

$$$$
>  <compound>
CCOc1ccc(C(=O)Nc2ccc(C[C@]34CN[C@H](CO3)C4)cc2)cc1

>  <classification>
f

$$$$
>  <compound>
O=C(Nc1ccc(Cl)cc1)Nc1ccc(C23CCC(CO2)NC3)cc1 (racemic)

>  <classification>
t

$$$$

Problem: Given the entry O=C(Nc1ccc(C23CCC(CO2)NC3)cc1)c1ccc(Cl)cc1 (racemic) , would its reported Ki be below 0.06 µM?
Solution: f

Problem: And then O=C(Nc1ccc(C(F)(F)F)cc1)Nc1ccc(C23CCC(CO2)NC3)cc1 (racemic) , what is it?
Solution: t

Problem: And then CC(C)c1cc(C(=O)Nc2ccc(C[C@]34CN[C@H](CO3)C4)cc2)[nH]n1 , what is it?
Solution: f

====

// reported Ki for each item listed
target_or_system: UniProt Q923Y8
assay_comment: Radioligand binding assay on mouse TAAR1
assay_setup: mouse TAAR1 (first value of the cell); membranes of HEK-293 cells stably expressing mouse TAAR1; read-out: Ki (μM) mouse/rat
Remember to quote the unit after the number.

>  <compound>
O=C(Nc1ccc(C[C@@]23CN[C@@H](CO2)C3)cc1)c1ccnc(C(F)(F)F)c1 [Example 40]

>  <target_or_system>
UniProt Q923Y8

>  <Ki>
0.0522 µM

$$$$
>  <compound>
FC(F)(F)c1ccc(Nc2ccc(C[C@@]34CN[C@@H](CO3)C4)cc2)nc1 [Example 63]

>  <target_or_system>
UniProt Q923Y8

>  <Ki>
0.0107 µM

$$$$

Problem: Form field - read-out: Ki; system: UniProt Q923Y8; submitted item: O=C(Nc1ccc(C[C@@]23CN[C@@H](CO2)C3)cc1)c1ccc(OCC(F)(F)F)nc1 [Example 47]
Solution: 0.0104 µM

Problem: And then O=C(Nc1ccc(C23CCC(CO2)NC3)cc1)c1ccc(OCC(F)(F)F)nc1 (racemic) [Example 13] , what is it?
Solution: 0.0304 µM

Problem: And then FC(F)(F)c1nccc(Nc2ccc([C@]34CN[C@H](CO3)C4)cc2)n1 [Example 62] , what is it?
Solution: 0.144 µM

Problem: And then O=C(Nc1ccc(C(F)(F)F)cc1)Nc1ccc(C23CCC(CO2)NC3)cc1 (racemic) [Example 67] , what is it?
Solution: 0.0137 µM

Problem: And then CCOc1ccc(C(=O)Nc2ccc(C[C@]34CN[C@H](CO3)C4)cc2)cn1 [Example 26] , what is it?
Solution: 1.14 µM

Problem: And then CCOc1ccc(C(=O)Nc2ccc(C[C@@]34CN[C@@H](CO3)C4)cc2)cn1 [Example 46] , what is it?
Solution: 0.0142 µM

All values here come from patent US9663530B2.
